- Test system: SK-OV-3 ovarian
- assayComment: NCI tumour cell line growth inhibition, 48 h; in the data active = GI50 below about 0.43 µM; inactive = the rest
*1 amine or outer side, *2 acyl side, *3 side chain or, on linkers, in order; H or OH if unused. Where a SMILES comes first, the peptide text is derived from it. [ ]: non-standard residue; d: D form. X56 = CC[C@H](C)[C@H](OC(=O)[C@@H](C)[C@@H](CC)N[*:1])C(=O)[*:2]; X32 = C[C@H](N[*:1])C(=O)C(C)(C)C(=O)[*:2]; NMeY = CN[C@@H](Cc1ccc(O)cc1)C(=O)O; NMeL = CN[C@@H](CC(C)C)C(=O)O; NMeV = CN[C@H](C(=O)O)C(C)C
Select the matching outcome among active, inactive

[[record]]
molecule = "COc1cc(OC)c(C(=O)/C=C/c2cccc(OC(C)=O)c2)cc1CC=C(C)C"
assignedcategory = "inactive"

[[record]]
molecule = "O=C1CS/C(=N\\S(=O)(=O)c2ccc(N3N=C4c5ccccc5CC4C3c3ccc(Cl)cc3)cc2)N1c1ccccc1 (stereo not drawn)"
assignedcategory = "inactive"


Problem: What was the test verdict on NC1=Nc2cc(OCCCN3Cc4ccccc4C3)c(OCC3CC3)cc2C12CCCC2 ?
Result: inactive

Problem: Next entry: CNCCCNCCCN1C(=O)c2ccc3c4c(ccc(c24)C1=O)C(=O)N(CCCNCc1ccccc1OC)C3=O
Result: inactive

Problem: Next entry: CC[C@H](C)[C@@H]1OC(=O)[C@@H](C)[C@@H](CC)NC(=O)[C@H](C)NC(=O)C(C)(C)C(=O)[C@H](C)NC(=O)[C@H](Cc2ccc(OC)cc2)N(C)C(=O)[C@H](C(C)C)N(C)C(=O)CNC(=O)[C@H](CC(C)C)N(C)C(=O)CNC1=O (cyclo(A[X56]G[NMeL]G[NMeV][NMeY](Me)[X32]))
Result: active

Problem: Next entry: O=C(Nc1ccccc1)Nc1cccc(Oc2nnc(Cl)c3ccccc23)c1
Result: inactive

Problem: Next entry: Cc1ccc(Sc2sc(-c3ccccc3)nc2[P+](c2ccccc2)(c2ccccc2)c2ccccc2)cc1
Result: active

Problem: Next entry: O=C1NN(c2ccccc2)C(=O)/C1=C/c1ccc(Br)o1
Result: inactive

###

- System: NCI-H226 lung
- assayComment: NCI tumour cell line growth inhibition, 48 h
# maps each entry to its TGI
Number only, in µM; omit the unit.

These recorded examples may help you get a feel for the data.
[[record]]
molecule = "Oc1ccc(C#CCOc2ccccc2)cc1CNCCN(Cc1ccccn1)Cc1ccccn1"
observedresult = 3.1

[[record]]
molecule = "COc1cc2c(cc1OCCCCOc1ccc(-c3nc4ccccc4s3)cc1)N=C[C@@H]1CCCN1C2=O"
observedresult = 3.89

[[record]]
molecule = "COc1cc(/C=C(\\OC(C)=O)c2ccc3c(c2)OCO3)cc(OC)c1OC"
observedresult = 30.7

[[record]]
molecule = "O=C(OCCC12CC3CC(CC(C3)C1)C2)c1ccc(NCc2cc(O)ccc2O)cc1"
observedresult = 8.62


Now look at this entry.
Problem: Report TGI for CCN1CCC(O)(c2ccc(Oc3ccc(C)cc3)cc2)C(C(=O)c2ccc(Oc3ccc(C)cc3)cc2)C1 (stereo unspecified) please.
Result: 27.9

###

- Tested on: COLO 205 colon
- assayComment: NCI tumour cell line growth inhibition, 48 h; in the data active = GI50 below about 0.43 µM; inactive = the rest
Select the matching outcome among T for active, F for inactive

Previously resolved entries follow.
[[record]]
compound = "CCNCCCn1c2c(c3ccc([N+](=O)[O-])cc3c1=O)C(=O)c1cc(OC)cnc1-2"
assignedcategory = "T"

[[record]]
compound = "CCOC(=O)c1cc(C(=O)c2cc(OC)c(OC)c(OC)c2)n2ccccc12"
assignedcategory = "T"

[[record]]
compound = "O=C1NN(c2ccccc2)C(=O)/C1=C/c1ccc(Br)o1"
assignedcategory = "F"


Problem: What was the test verdict on CN1CCN(c2ccc(C(=O)Nc3cc(-c4cccc(NS(=O)(=O)c5ccccc5)c4)[nH]n3)cc2)CC1 ?
Result: F

Problem: Next entry: O=C1CCS/C(=N\S(=O)(=O)c2ccc(N3N=C4c5ccccc5CC4C3c3cccs3)cc2)N1C(=O)c1ccccc1 (stereo not given)
Result: F
